Target: Protein farnesyltransferase (Bos taurus, UniProt P29702+P49355)
Experiment: Inhibition of the Farnesyltransferase catalyzed incorporation of [3H]FPP into recombinant Ha-Ras by 50% in bovine brain at a concentration of ca. 1 nM.
# pIC50 values compiled below
Interpret pIC50 as the negative base-10 log of the concentration measured in mol/L.

Examples with their reported pIC50 follow.
- SMILES: "N[C@@H](CS)C(=O)Nc1ccc(Oc2cccc(C(=O)O)c2)cc1"
  pIC50: 4.80
- SMILES: "N[C@@H](CS)C(=O)Nc1cccc(Oc2cccc(C(=O)O)c2)c1"
  pIC50: 5.16

Now for another entry.
Asked: Item COC(=O)c1cccc(Oc2ccc(NC[C@@H](N)CS)cc2)c1 has what recorded pIC50?
Given back: 6.19
